Tested on: HCT116 WT cells
EXPERIMENT_DESCRIPTION: HCT116 proliferation assay, WT cells (CellTiter-Glo, 6 days)
Format: cell-based
ASSAY_SETUP: Homo sapiens, HCT-116, 144 h, read-out: Prolif_HCT116-WT IC50
Field: pIC50. Provide a value for each of the molecules that follow.
Answers are plain numbers, as −log10 of the molar value.

Could you tell me pIC50 for each of these molecules? They are listed below.
1. COc1ccc(CN(C(=O)c2ccc3nc(N)c(C)cc3c2)[C@@H](c2ncccn2)C2CC2)nn1 (single isomer, unassigned)
2. Cc1cc2cc(C(=O)N(Cc3ccc(C#N)nn3)[C@H](C)c3ncccc3F)ccc2nc1N

a:
1: 5.77; 2: 5.17

###

Tested on: HCT116 WT cells
EXPERIMENT_DESCRIPTION: HCT116 proliferation assay, WT cells (CellTiter-Glo, 6 days)
Assay type: cell-based
ASSAY_SETUP: Homo sapiens, HCT-116, 144 h, read-out: Prolif_HCT116-WT IC50
ENDPOINT_NAME: pIC50
One number for each entry, as −log10 of the molar value.

Cc1cc(C(F)(F)F)ccc1CN(Cc1ncccc1F)C(=O)c1ccc2nc(N)c(C)cc2c1 = 5.41
Cc1cc2cc(C(=O)N(Cc3ccc(C(F)(F)F)cn3)C(C)c3ncon3)ccc2nc1N (stereo not drawn) = 5.86

I have 4 molecules here; please give me pIC50 for each one.
1. Cc1cc2cc(C(=O)N(Cc3ccc(Br)nn3)[C@@H]3CCC[C@H]3O)ccc2nc1N
2. Cc1cc2c(CN(Cc3ccc(C(F)(F)F)cn3)C(=O)c3ccc4nc(N)c(C)cc4c3)ccnc2[nH]1
3. Cc1cc2cc(C(=O)N(Cc3ccc(C(F)(F)F)cn3)[C@H]3CCCc4nccnc43)ccc2nc1N (single isomer, unassigned)
4. Cc1cc2cc(C(=O)N(Cc3ccc(C4CC4)cn3)[C@H](C)c3ncccn3)ccc2nc1N

a:
1: 5.15; 2: 5.94; 3: 5.25; 4: 6.43

Give one value of pIC50 per listed molecule.
1. Cc1cc2cc(C(=O)N(Cc3ccc(C(F)(F)F)cn3)[C@@H]3CCOc4cccnc43)ccc2nc1N (single isomer, unassigned)
2. Cc1cc2cc(C(=O)N(Cc3ccc(C(F)(F)F)cn3)Cc3cnccn3)c(F)cc2nc1N
3. Cc1cc2cc(C(=O)N(Cc3ccc(C(F)(F)F)cn3)[C@@H](C)c3ncn(C)n3)c(F)cc2nc1N (single isomer, unassigned)
4. Cc1cc2cc(C(=O)N(Cc3ccc(Br)nn3)[C@H](C)c3nccs3)ccc2nc1N

a:
[6.09, 5.36, 5.69, 6.20]

###

Tested on: HCT116 MTAP null cells
EXPERIMENT_DESCRIPTION: HCT116 proliferation assay, MTAP null cells (CellTiter-Glo, 6 days)
Type: cell-based
ASSAY_SETUP: HCT116-MTAP null, 144 h, read-out: Protif_ HCT116-MTAP null IC50
Provide the recorded pIC50 for the entries that follow.
Answers are plain numbers, as −log10 of the molar value.

In the examples that follow, each entry is paired with its recorded pIC50.
COc1ccc(CN(C(=O)c2cc3cc(C)c(N)nc3cc2F)[C@H](C)c2ncccn2)nn1 (single isomer, unassigned) = 7.22
C[C@H](c1cccc(F)n1)N(Cc1ccc(C(F)(F)F)cn1)C(=O)c1cnc2nc(N)c(Br)cc2c1 = 6.76

Quick batch: pIC50 for everything below.
1. Cc1cc2cc(C(=O)N(Cc3ccc(C(F)(F)F)cn3)Cc3cccnc3-n3cncn3)ccc2nc1N
2. COC[C@@H](C)N(Cc1ccc(C(F)(F)F)cn1)C(=O)c1ccc2nc(N)c(C)cc2c1
3. Cc1cc2cc(C(=O)N(Cc3ccc(C(F)(F)F)cn3)[C@H](C)c3cnccn3)ccc2nc1N (single isomer, unassigned)
4. Cc1cc2cc(C(=O)N(Cc3ccc(C(F)(F)F)cn3)[C@H](C)c3ccc(Cl)cn3)ccc2nc1N
5. COc1nc(C(F)(F)F)ccc1CN(C(=O)c1ccc2nc(N)c(C)cc2c1)[C@H](C)c1ncccn1 (single isomer, unassigned)
6. Cc1cc2cc(C(=O)N(Cc3ccc(N4CCOCC4)cn3)[C@H](C)c3ncccn3)ccc2nc1N
7. Cc1cc2cc(C(=O)N(Cc3ccc(OC4COC4)cn3)[C@H](C)c3ncccn3)ccc2nc1N
8. COC[C@@H](c1ccccn1)N(Cc1ccc(C(F)(F)F)cn1)C(=O)c1ccc2nc(N)c(C)cc2c1 (single isomer, unassigned)

a:
[6.80, 7.34, 6.97, 6.73, 7.48, 6.54, 6.82, 6.59]

State the recorded pIC50 for every item in the following list.
1. Cc1cc2cc(C(=O)N(Cc3ccc(C(F)(F)F)cn3)Cc3c(F)cccc3F)ccc2nc1N
2. CO[C@@H](CN(Cc1ccc(C(F)(F)F)cn1)C(=O)c1cnc2nc(N)c(Br)cc2c1)C(F)(F)F (single isomer, unassigned)
3. Cc1cc2cc(C(=O)N(Cc3ccc(C(F)(F)F)cn3)C3CCC(C)c4ccccc43)ccc2nc1N (centres unmarked)

a:
7.14
6.60
7.07

q: Item Cc1cc2cc(C(=O)N(Cc3ccc(C(F)(F)F)cn3)C(C)c3ccc4c(c3)NC(=O)CO4)ccc2nc1N (centres unmarked) : provide pIC50
a: 6.74

###

Test system: HCT116 MTAP null cells
EXPERIMENT_DESCRIPTION: HCT116 proliferation assay, MTAP null cells (CellTiter-Glo, 6 days)
Assay type: cell-based
ASSAY_SETUP: HCT116-MTAP null, 144 h, read-out: Protif_ HCT116-MTAP null IC50
I'd appreciate it if you could supply IC50 values for the items below.
Give bare numbers, in nM.

Examples with their reported IC50 follow.
COC(=O)N1CCC(c2ccc(CN(C(=O)c3ccc4nc(N)c(C)cc4c3)[C@H](C)c3ncccn3)nc2)CC1 = 45
CO[C@H]1Cc2ccccc2[C@@H]1N(Cc1ccc(C(F)(F)F)cn1)C(=O)c1ccc2nc(N)c(C)cc2c1 = 119

Here is the next item to consider.
q: Answer with the recorded IC50 for the molecule listed here: Cc1nc([C@@H](C)N(Cc2ccc(C(F)F)cn2)C(=O)c2ccc3nc(N)c(C)cc3c2)no1 (single isomer, unassigned)
a: 154

###

For each record, write down the corresponding log10 of IC50.
System: HCT116 MTAP null cells
EXPERIMENT_DESCRIPTION: HCT116 proliferation assay, MTAP null cells (CellTiter-Glo, 6 days)
Format: cell-based
ASSAY_SETUP: HCT116-MTAP null, 144 h, read-out: Protif_ HCT116-MTAP null IC50
Kindly note that the scale is log10 and the underlying IC50 is in nM.

Examples from the recorded data:
Cc1cc2cc(C(=O)N(Cc3ccc[nH]3)Cc3ccnc4[nH]ccc34)ccc2nc1N = 2.52
Cc1cc2cc(C(=O)N(Cc3ccc(C(F)(F)F)cn3)Cc3ccnn3C)ccc2nc1N = 2.77
COC[C@@H](C1CC1)N(Cc1ccc(C(F)(F)F)cn1)C(=O)c1ccc2nc(N)c(C)cc2c1 (single isomer, unassigned) = 1.18
Cc1cc2cc(C(=O)N(Cc3ccc(C(F)(F)F)cn3)[C@@H](c3ncccn3)C3CC3)cnc2nc1N = 2.09
Cc1cc2cc(C(=O)N(Cc3ncc(C(F)(F)F)cc3Cl)[C@H](C)c3ncccc3F)ccc2nc1N = 2.90

List the reported log10 of IC50 of each compound below.
1. Cc1cc2cc(C(=O)N(Cc3ccc(C(F)(F)F)cn3)C3(c4ncccn4)CC3)ccc2nc1N
2. CC(c1cscn1)N(Cc1ccc(C(F)(F)F)nn1)C(=O)c1cnc2nc(N)c(Br)cc2c1 (centres unmarked)
3. Cc1cc2cc(C(=O)N(Cc3ccc(C4CC4)cn3)CC(C)C)ccc2nc1N
4. Cc1cc2cc(C(=O)N(Cc3ccc(C(F)(F)F)cn3)[C@@H]3CCCNC3=O)ccc2nc1N (single isomer, unassigned)
5. C[C@H](c1ncccn1)N(Cc1ccc(Br)nn1)C(=O)c1ccc2nc(N)c(Cl)cc2c1

a:
2.70
2.21
2.42
2.51
2.62

Need log10 of IC50 for each of these compounds.
1. C[C@H](c1ncccn1)N(Cc1ccc(Br)nn1)C(=O)c1cnc2nc(N)c(Br)cc2c1
2. C[C@H](c1ncccn1)N(Cc1ccc(OC2COC2)cn1)C(=O)c1cnc2nc(N)c(Br)cc2c1
3. C[C@H](c1ncccn1)N(Cc1ccc(C2CC2)nn1)C(=O)c1ccc2nc(N)c(I)cc2c1
4. C[C@H](c1ncccc1F)N(Cc1ccc(C#N)cn1)C(=O)c1ccc2nc(N)c(Cl)cc2c1
5. C[C@H](c1ncccn1)N(Cc1ccc(C(F)(F)F)cn1)C(=O)c1cnc2nc(N)c(I)cc2c1
6. Cc1cc2cc(C(=O)N(Cc3ccc(C4CC4)nn3)[C@H](C)c3ncccn3)ccc2nc1N
7. COc1ccc(CN(C(=O)c2ccc3nc(N)c(Br)cc3c2)[C@H](C)c2ncccn2)nn1

a:
1. 2.60
2. 2.98
3. 1.76
4. 2.92
5. 1.75
6. 1.81
7. 2.26

Can you give me log10 of IC50 for all of these, one by one?
1. Cc1cc2cc(C(=O)N(Cc3ccc(C(F)(F)F)cn3)CC3CCOCC3C)ccc2nc1N (centres unmarked)
2. Cc1cc2cc(C(=O)N(Cc3ccc(O)c(F)c3)Cc3ccc(C(F)(F)F)cn3)ccc2nc1N
3. CCOc1ccc(CN(C(=O)c2ccc3nc(N)c(Br)cc3c2)[C@H](C)c2ncccn2)nn1
4. Cc1cc2cc(C(=O)N(Cc3ccc4[nH]c(=O)[nH]c4c3)Cc3ccncc3F)ccc2nc1N
5. CO[C@@H]1CCCC[C@H]1N(Cc1ccc(C(F)(F)F)cn1)C(=O)c1cnc2nc(N)c(Br)cc2c1 (racemic)
6. Cc1cc2cc(C(=O)N(Cc3ncccc3F)Cc3ncc(F)cc3F)ccc2nc1N
7. Cc1cc2cc(C(=O)N(Cc3ccc(C(F)(F)F)cn3)[C@H]3CCC[C@@H]3OC(F)F)ccc2nc1N (single isomer, unassigned)

a:
1. 2.55
2. 2.26
3. 2.06
4. 2.88
5. 2.40
6. 2.95
7. 2.57
